molecular target: Prostaglandin G/H synthase 2 (Homo sapiens, UniProt P35354)
Sequence (P35354 whole entry): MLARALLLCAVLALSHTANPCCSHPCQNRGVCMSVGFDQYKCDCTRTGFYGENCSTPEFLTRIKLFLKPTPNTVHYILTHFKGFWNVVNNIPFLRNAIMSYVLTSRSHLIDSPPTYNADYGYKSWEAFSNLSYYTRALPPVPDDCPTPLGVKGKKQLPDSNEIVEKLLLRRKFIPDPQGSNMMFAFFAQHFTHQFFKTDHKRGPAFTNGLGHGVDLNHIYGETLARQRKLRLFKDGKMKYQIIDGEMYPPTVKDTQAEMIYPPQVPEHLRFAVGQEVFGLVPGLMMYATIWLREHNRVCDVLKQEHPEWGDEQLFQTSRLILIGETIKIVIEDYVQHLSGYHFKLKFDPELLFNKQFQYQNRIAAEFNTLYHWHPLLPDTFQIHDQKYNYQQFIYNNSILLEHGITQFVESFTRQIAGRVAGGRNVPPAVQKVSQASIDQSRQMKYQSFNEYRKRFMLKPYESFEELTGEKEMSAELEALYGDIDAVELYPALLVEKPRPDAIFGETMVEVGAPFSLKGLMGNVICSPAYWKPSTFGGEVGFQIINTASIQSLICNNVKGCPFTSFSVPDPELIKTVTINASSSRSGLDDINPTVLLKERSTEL
pIC50: −log10 of the molar value.
Please enter rule met where pIC50 is greater than or equal to 7, and rule not met where it is lower.

Illustrative cases are given below, each with its answer.
CCSc1cc(NCc2ccccc2)nc(-c2ccc(S(C)(=O)=O)cc2)n1    rule met
CS(=O)(=O)c1ccc(-c2nc(NCc3nc4ccccc4[nH]3)cc(C(F)(F)F)n2)cc1    rule not met
NS(=O)(=O)c1ccc(-c2nc(NCC3CCCCC3)cc(C(F)(F)F)n2)cc1    rule not met
CC(C)c1ccc(CNc2cc(C(F)(F)F)nc(-c3ccc(S(C)(=O)=O)cc3)n2)cc1    rule not met
CS(=O)(=O)c1ccc(-c2nc(NCC3CC=CCC3)cc(C(F)(F)F)n2)cc1 (centres undefined)    rule met

Prompt: Quick check: does CS(=O)(=O)c1ccc(-c2nc(NCc3ccc4ccccc4c3)cc(C(F)(F)F)n2)cc1 have pIC50 greater than or equal to 7?
Completion: rule not met

Prompt: Quick check: does NS(=O)(=O)c1ccc(-c2nc(NCc3ccccc3)cc(C(F)(F)F)n2)cc1 have pIC50 greater than or equal to 7?
Completion: rule not met

Prompt: Quick check: does Cc1c(NCc2ccccc2)nc(-c2ccc(S(C)(=O)=O)cc2)nc1C(F)(F)F have pIC50 greater than or equal to 7?
Completion: rule met
